Data origin, for the record: patent US12077503B2

# System: ryegrass, Italian (Italian ryegrass, Lolium multiflorum)
# PROTOCOL_DESCRIPTION: Test A postemergence
# Type: in vivo
# CONDITIONS_USED: Postemergence, 500 g ai/ha; 0 to 100 scale where 0 is no effect and 100 is complete control
Readings of Plant response rating, Ryegrass, Italian for the listed compounds
In your answer, state the number alone without any accompanying words.

Look up and report measured Plant response rating, Ryegrass, Italian (ryegrass, Italian (Italian ryegrass, Lolium multiflorum)) for the following compound: O=C1NCC(c2c(F)cccc2F)C1C(=O)Nc1ccc(F)cc1F (racemic)
0

Enter Plant response rating, Ryegrass, Italian (test system ryegrass, Italian (Italian ryegrass, Lolium multiflorum)) for O=C(Nc1ccccc1F)C1C(=O)N(CC=CCl)CC1c1cccc(C(F)(F)F)c1 (stereo not shown)
0

Write down measured Plant response rating, Ryegrass, Italian (ryegrass, Italian (Italian ryegrass, Lolium multiflorum)) for this compound. CN1CC(c2cccc(OC(F)F)c2)C(C(=O)Nc2cccc(F)c2F)C1=O (stereo not shown)
80

Find Plant response rating, Ryegrass, Italian for COc1c(F)ccc(NC(=O)C2C(=O)NCC2c2cc(F)cc(F)c2)c1F (racemic) on ryegrass, Italian (Italian ryegrass, Lolium multiflorum) and write it down.
40

###

# Tested on: Kochia (Kochia scoparia)
# PROTOCOL_DESCRIPTION: Test A preemergence
# Type: in vivo
# CONDITIONS_USED: Bassia scoparia, pre-emergence, 240 h, 500 g ai/ha, preemergence; 0 to 100 scale, 0 = no effect, 100 = complete control; read-out: Plant response rating, Kochia
PROPERTY: pest or weed control at 500 g/ha (%)
Report as a plain number; the unit % is understood.

These solved cases illustrate the format of a correct answer.
# MOLECULE, EXPERIMENTAL_TARGET, pest or weed control at 500 g/ha, %
rows = [
    ("Cc1ccc(NC(=O)[C@H]2C(=O)N(C)C[C@@H]2c2cc(F)cc(F)c2)c(F)c1F [Compound 771]", "Kochia (Kochia scoparia)", 80),
    ("CN1C[C@H](c2cccc(C(F)(F)F)c2)[C@@H](C(=O)Nc2ccccc2C2CC2)C1=O [Compound 749]", "Kochia (Kochia scoparia)", 20),
    ("COc1ccc([C@H]2CNC(=O)[C@@H]2C(=O)Nc2ccccc2S(C)(=O)=O)cc1F [Compound 721]", "Kochia (Kochia scoparia)", 0),
]

Supply measured pest or weed control at 500 g/ha of O=C1NC[C@H](c2csc3ccccc23)[C@H]1C(=O)Nc1ccccc1F [Compound 750] in your reply.
0

// fetch pest or weed control at 500 g/ha given entry Cc1ccc(NC(=O)[C@H]2C(=O)N(C)C[C@@H]2c2cc(F)cc(F)c2)c(F)c1 [Compound 760]
60

###

# Test system: Kochia (Kochia scoparia)
# PROTOCOL_DESCRIPTION: Test A postemergence
# Format: in vivo
# CONDITIONS_USED: Bassia scoparia, post-emergence, 240 h, 125 g ai/ha, postemergence, visual injury rating after approximately 10 d; read-out: Kochia plant response rating (0 to 100 scale, 0 no effect, 100 complete control)
# Description: […]
PROPERTY: pest or weed control at 125 g/ha
Please provide the amount together with its unit, number first.

Sample records with pest or weed control at 125 g/ha:
# COMPOUND, EXPERIMENTAL_TARGET, PROPERTY, RESULT_VALUE
records = [
    ("CSc1ccccc1NC(=O)[C@H]1C(=O)N(C)C[C@@H]1c1cccc(OC(F)(F)C(F)F)c1 [Compound 862]", "Kochia (Kochia scoparia)", "pest or weed control at 125 g/ha", "40%"),
    ("CCOc1ccc([C@H]2CNC(=O)[C@@H]2C(=O)Nc2ccccc2F)cc1 [Compound 906]", "Kochia (Kochia scoparia)", "pest or weed control at 125 g/ha", "0%"),
    ("CN1C[C@H](c2cc(F)cc(F)c2)[C@@H](C(=O)Nc2ncc(C(F)(F)F)cc2F)C1=O [Compound 868]", "Kochia (Kochia scoparia)", "pest or weed control at 125 g/ha", "0%"),
    ("CN1C[C@H](c2cccc(F)c2)[C@@H](C(=O)Nc2ccccc2F)C1=O [Compound 822]", "Kochia (Kochia scoparia)", "pest or weed control at 125 g/ha", "0%"),
    ("CC(C)(C)c1ccc([C@H]2CNC(=O)[C@@H]2C(=O)Nc2cccc(F)c2F)cc1 [Compound 847]", "Kochia (Kochia scoparia)", "pest or weed control at 125 g/ha", "0%"),
]

Report measured pest or weed control at 125 g/ha on Kochia (Kochia scoparia); entry: CN1C[C@H](c2cccc(COC(F)F)c2)[C@@H](C(=O)Nc2ccccc2S(C)(=O)=O)C1=O [Compound 877]
20%

Report pest or weed control at 125 g/ha under test system Kochia (Kochia scoparia) for COc1c(F)ccc([C@H]2CN(C)C(=O)[C@@H]2C(=O)Nc2cccc(F)c2F)c1Cl [Compound 893] .
60%
